Molecular target: T1, ZO-1 PDZ2 K253A (human, UniProt Q07157 186-264, K253A)
T1 sequence: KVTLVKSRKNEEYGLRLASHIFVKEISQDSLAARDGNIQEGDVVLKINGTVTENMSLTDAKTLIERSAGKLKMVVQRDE
Experiment: ITC
observed-property: pKd
In simple prose, pKd is minus the logarithm base ten of a concentration in moles per litre.

Recorded pKd of PSSRASSRASSRPRPDDLEI [Connexin 43 (Cx43) C-terminal peptide] , please.
4.66
